# Tested on: Plasmodium falciparum
# Experimental Details: Antiplasmodial activity against chloroquine-resistant Plasmodium falciparum Dd2 infected in human RBCs after 72 hrs by SYBR Green based parasite proliferation assay
# Format: functional, organism-based
# Measurement Conditions: Dd2, 72 h
Result Type: IC50 (nM)

• C=C1CC[C@@]2(N=C=[Se])[C@H]3[C@H](CC[C@@H]2C)[C@@H](C)C[C@@H](CC(C)(C)N=C=[Se])[C@H]13 = 6.6
• [C-]#[N+]C(C)(C)C[C@@H]1C[C@H](C)[C@H]2CC[C@H](C)[C@@]3([N+]#[C-])CCC(=C)[C@@H]1[C@H]23 [DIISOCYANOAMPHILECTENE] = 3.1
• C=C1CC[C@@]2(N=C=S)[C@H]3[C@H](CC[C@@H]2C)[C@@H](C)C[C@@H](CC(C)(C)N=C=S)[C@H]13 = 11600
